All figures here come from the supplement of paper PMC8728848.

TARGET_ENTITY: Gal(b1-4)GlcNAc(b1-3)Gal(b1-4)GlcNAc(b1-2)Man(a1-3)[Gal(b1-4)GlcNAc(b1-3)Gal(b1-4)GlcNAc(b1-2)Man(a1-6)]Man(b1-4)GlcNAc(b1-4)[Fuc(a1-6)]GlcNAc
ASSAY_NAME: glycan array binding signal (z-score within array); higher = stronger binding
ASSAY_CONTEXT: glycan notation: IUPAC condensed, linker removed
Shown is part of a subset that was picked to be rich in the strongest signals.
The binders listed here are annotated with their glycan array binding signal (z-score).
Respond using a number only.

Sample records with glycan array binding signal (z-score):
- BINDER: "SP15308B-bot-339-22-339 (Bacteroides ovatus) (protein) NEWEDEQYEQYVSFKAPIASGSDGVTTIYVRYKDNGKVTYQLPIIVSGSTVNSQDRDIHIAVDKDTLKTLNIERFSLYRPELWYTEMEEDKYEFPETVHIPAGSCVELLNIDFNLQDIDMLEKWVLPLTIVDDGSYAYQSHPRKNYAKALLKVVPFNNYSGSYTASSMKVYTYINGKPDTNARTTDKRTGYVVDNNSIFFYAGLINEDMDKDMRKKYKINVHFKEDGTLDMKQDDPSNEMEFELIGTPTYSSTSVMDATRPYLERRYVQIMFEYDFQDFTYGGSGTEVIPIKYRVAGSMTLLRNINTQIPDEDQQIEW"
  glycan array binding signal (z-score): 2.57
- BINDER: "Mincle (Bos taurus) (protein) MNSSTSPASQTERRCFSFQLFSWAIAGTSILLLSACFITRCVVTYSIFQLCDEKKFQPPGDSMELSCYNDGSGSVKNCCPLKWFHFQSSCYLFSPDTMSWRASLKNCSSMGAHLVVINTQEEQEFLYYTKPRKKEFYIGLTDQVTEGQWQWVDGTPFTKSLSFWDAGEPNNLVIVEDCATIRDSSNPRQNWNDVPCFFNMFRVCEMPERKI"
  glycan array binding signal (z-score): 1.11
- BINDER: "ECL (Erythrina cristagalli), Q6YD91 (protein) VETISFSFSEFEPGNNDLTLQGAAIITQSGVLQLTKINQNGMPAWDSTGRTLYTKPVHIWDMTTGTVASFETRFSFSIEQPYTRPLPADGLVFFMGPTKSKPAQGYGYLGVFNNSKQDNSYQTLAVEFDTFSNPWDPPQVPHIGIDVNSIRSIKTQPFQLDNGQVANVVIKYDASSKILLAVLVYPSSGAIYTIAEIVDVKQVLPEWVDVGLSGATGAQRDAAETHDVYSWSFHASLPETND"
  glycan array binding signal (z-score): 4.13
- BINDER: "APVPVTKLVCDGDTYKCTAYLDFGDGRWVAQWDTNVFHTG [PhoSpL (Pholiota squarrosa)]"
  glycan array binding signal (z-score): 1.94
- BINDER: "CFEM-PPm (Pichia pastoris), F2QPV1 (protein) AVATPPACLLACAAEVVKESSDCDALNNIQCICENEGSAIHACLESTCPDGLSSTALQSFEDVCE"
  glycan array binding signal (z-score): -0.026

Next up:
Challenge: What does the record list as glycan array binding signal (z-score) for RsaA-N-term (Caulobacter crescentus), P35828 (protein) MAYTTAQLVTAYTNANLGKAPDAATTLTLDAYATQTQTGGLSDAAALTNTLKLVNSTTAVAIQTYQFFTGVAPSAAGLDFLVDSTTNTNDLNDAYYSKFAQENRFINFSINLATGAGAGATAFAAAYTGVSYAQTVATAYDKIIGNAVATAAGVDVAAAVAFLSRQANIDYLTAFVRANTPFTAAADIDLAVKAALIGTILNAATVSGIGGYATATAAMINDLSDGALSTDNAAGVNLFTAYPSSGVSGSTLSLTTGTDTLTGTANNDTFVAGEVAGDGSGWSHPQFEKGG ?
Response given: 2.39
